Data origin, for the record: patent US6864275B1

- System: B16 murine melanoma
- Assay text: In vivo B16 murine melanoma tumor model
- Design: species or system B6D2F1 mice
- Assay conditions: 50 mg/kg/i.p, qd × 5; mean survival treated/control
Recorded T/C (%) by entry
Give your result as the value with the unit written after it.

Past entries and their recorded results:
[
  {
    "Compound": "CCC(C)COC(=O)c1ccc2nc(NC(=O)OC)[nH]c2c1 (stereo not shown)",
    "System name": "B16 murine melanoma",
    "Reported measurement": "119%"
  },
  {
    "Compound": "COC(=O)Nc1nc2ccc(C(=O)OCC(C)CC(C)(C)C)cc2[nH]1 (stereo not shown)",
    "System name": "B16 murine melanoma",
    "Reported measurement": "94%"
  },
  {
    "Compound": "COC(=O)Nc1nc2ccc(C(=O)OCCCCCl)cc2[nH]1",
    "System name": "B16 murine melanoma",
    "Reported measurement": "132%"
  }
]

What value of T/C (%) has been reported for the following compound? "C=CCCOC(=O)c1ccc2nc(NC(=O)OC)[nH]c2c1"
119%

---

Documented # of Toxic Deaths across a set of compounds
- System: B16 murine melanoma
- Assay text: In vivo B16 murine melanoma tumor model
- Parameters: species or system B6D2F1 mice
- Assay conditions: 100 mg/kg/i.p, qd × 5
Lab note: write the figure by itself, no unit.

[
  {
    "Compound": "COC(=O)Nc1nc2ccc(C(=O)OCC(C)CC(C)(C)C)cc2[nH]1 (stereo not shown) [3-13]",
    "System name": "B16 murine melanoma",
    "Measured metric": "# of Toxic Deaths",
    "Reported measurement": 0
  },
  {
    "Compound": "COC(=O)Nc1nc2ccc(C(=O)OCCCCCl)cc2[nH]1 [Cpd. No. 3-1]",
    "System name": "B16 murine melanoma",
    "Measured metric": "# of Toxic Deaths",
    "Reported measurement": 0
  },
  {
    "Compound": "CCC(C)COC(=O)c1ccc2nc(NC(=O)OC)[nH]c2c1 (stereo not shown) [3-19]",
    "System name": "B16 murine melanoma",
    "Measured metric": "# of Toxic Deaths",
    "Reported measurement": 0
  }
]

In the following, a different compound is considered.
Hello, I am looking for reported # of Toxic Deaths with B16 murine melanoma for C=CCCOC(=O)c1ccc2nc(NC(=O)OC)[nH]c2c1 [3-6] . Could you help?
0

---

- Tested on: B16 murine melanoma
- Assay text: In vivo B16 murine melanoma tumor model
- Set-up: species or system B6D2F1 mice
- Assay conditions: 50 mg/kg/i.p, qd × 5
Catalogue of compounds with associated Weight Change (Day 12)

Examples with answers:
[
  {
    "Compound": "COC(=O)Nc1nc2ccc(C(=O)OCCCCCl)cc2[nH]1 [Cpd. No. 3-1]",
    "Reported measurement": "+7.5%"
  },
  {
    "Compound": "COC(=O)Nc1nc2ccc(C(=O)OCC(C)CC(C)(C)C)cc2[nH]1 (stereo not shown) [3-13]",
    "Reported measurement": "+12.5%"
  }
]

Fill in the blank: the reported Weight Change (Day 12) of CCC(C)COC(=O)c1ccc2nc(NC(=O)OC)[nH]c2c1 (stereo not shown) [3-19] is ____.
+9.6%

I have this compound here, C=CCCOC(=O)c1ccc2nc(NC(=O)OC)[nH]c2c1 [3-6] , and I need its recorded Weight Change (Day 12).
+9.4%
